Test system: hSK1 channel
Experiment: Ca2+ activation of ramp currents, inside-out macropatches, homomeric hSK1
Format: cell-based, human
Conditions: inside-out patches, tsA201 cells; read-out: EC50 for activation of homomeric hSK1-mediated current
Measurement Kind: EC50 (nM)
Numeric answer only, unit nM assumed.

Task: Tell me reported EC50 for [Ca+2] , tested with hSK1 channel.
Output: 531
